B1: Storkhead-box protein 2, residues 64 to 141; numbered along this chain, Q9P2F5 (parent)
chain: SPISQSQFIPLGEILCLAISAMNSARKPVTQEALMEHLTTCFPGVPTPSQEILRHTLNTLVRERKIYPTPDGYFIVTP

Variants of: B1
test description: abundance fitness (aPCA) (normalised: wild type 0, dead -1); higher = more abundant; growth selection in yeast, the domain comes from the species named
conditions used: Homo sapiens
Item-by-item account of abundance fitness

| biosequence | abundance fitness |
| --- | --- |
| SPISQSQFIPLGEILCLAISAMNSARKPVTQEALMEHLTTRFPGVPTPSQEILRHTLNTLVRERKIYPTPDGYFIVTP [C41R] | -0.05 |
| SPISQSQFIPLGEILCLAISAMNSARKPVTQEALMEKLTTCFPGVPTPSQEILRHTLNTLVRERKIYPTPDGYFIVTP [H37K] | -0.164 |
| SPISQSQFIPLGLILCLAISAMNSARKPVTQEALMEHLTTCFPGVPTPSQEILRHTLNTLVRERKIYPTPDGYFIVTP [E13L] | -0.34 |
| SPISQSQFIPLGEILCLAISAMNSARKPVTQEALMEHLTTCFPGVPTPSQEILRVTLNTLVRERKIYPTPDGYFIVTP [H55V] | -0.035 |
| SPISQSQFIPLGEILCLAISRMNSARKPVTQEALMEHLTTCFPGVPTPSQEILRHTLNTLVRERKIYPTPDGYFIVTP [A21R] | -0.019 |
| SPISQSQFIPLGEILCLAISAMNSARKPVTQEALMEHLTTCFPGVPTPSQEILRHTLNTLVRERKIYPTPDGYFNVTP [I75N] | -0.177 |
| SPISQSQFIPLGEILCLAISAMNSARKPVTQEALWEHLTTCFPGVPTPSQEILRHTLNTLVRERKIYPTPDGYFIVTP [M35W] | -0.124 |
| SPISQSQFIPLGEILCLAIQAMNSARKPVTQEALMEHLTTCFPGVPTPSQEILRHTLNTLVRERKIYPTPDGYFIVTP [S20Q] | 0.019 |
| SIISQSQFIPLGEILCLAISAMNSARKPVTQEALMEHLTTCFPGVPTPSQEILRHTLNTLVRERKIYPTPDGYFIVTP [P2I] | -0.037 |
| SPISQSQFIPLGEILCLAISAMNSARKPVTQEALMEHLTTCEPGVPTPSQEILRHTLNTLVRERKIYPTPDGYFIVTP [F42E] | 0.108 |
| SPISQSQFIPLGEILCLAISAMNSARKPVTQEALMEHLTTCFPGVPTDSQEILRHTLNTLVRERKIYPTPDGYFIVTP [P48D] | -0.398 |
| SPISQSQFIPLGEILCLAISAMNSARKPVTQEALMEHLTTCFPGVPTPSQEILRHLLNTLVRERKIYPTPDGYFIVTP [T56L] | 0.054 |
| SPISQSQFIPLGEILCLAISAMNSARKPVTQEALMEHWTTCFPGVPTPSQEILRHTLNTLVRERKIYPTPDGYFIVTP [L38W] | -0.048 |
| SPISQSQFIPLGEILCLAISAMNSARKPVTQEALMEHLTTCFKGVPTPSQEILRHTLNTLVRERKIYPTPDGYFIVTP [P43K] | 0.048 |
| SPITQSQFIPLGEILCLAISAMNSARKPVTQEALMEHLTTCFPGVPTPSQEILRHTLNTLVRERKIYPTPDGYFIVTP [S4T] | -0.006 |
| SPISQSQFIPLGEILCLAISAMNSARKPVTQEALMEHLTTCFPGVPTPSQEILRHTLNTLVRERKIYPTPDGEFIVTP [Y73E] | -0.089 |
| SPIWQSQFIPLGEILCLAISAMNSARKPVTQEALMEHLTTCFPGVPTPSQEILRHTLNTLVRERKIYPTPDGYFIVTP [S4W] | -0.161 |
| SPISQSQFIPLGEILCLAISAMNSARKPVTQEALMEHLTTCFPGVPTPSQEILRHTLNTLVRERKIYPTPDGYFGVTP [I75G] | -0.033 |
| SPISQSQFIPLGEILCLAISGMNSARKPVTQEALMEHLTTCFPGVPTPSQEILRHTLNTLVRERKIYPTPDGYFIVTP [A21G] | -0.063 |
| SPISQSQFIPLGEILCLAISAMNSARKPVTQEALMETLTTCFPGVPTPSQEILRHTLNTLVRERKIYPTPDGYFIVTP [H37T] | -0.322 |
| SPISQSQFIPLGQILCLAISAMNSARKPVTQEALMEHLTTCFPGVPTPSQEILRHTLNTLVRERKIYPTPDGYFIVTP [E13Q] | 0.021 |
| SPISQSQFIPLGEILCLAISAMNSARKPVTQEALMEHLTTCFPGVPTPSWEILRHTLNTLVRERKIYPTPDGYFIVTP [Q50W] | -0.082 |
